Test system: P388 leukemia ip, CD2F1 mice, survival T/C
Assay: NCI In Vivo Anticancer Drug Screen. Data for tumor model P388 Leukemia (intraperitoneal) in CD2F1 (CDF1) mice
Conditions: endpoint: median survival time; dose: 200.0 mg/kg/injection; schedule: Q01DX005 (ip); vehicle: Klucel (hydroxypropylcellulose) (HPC); higher = longer survival
Toxic doses and inconclusive results are not listed.

smiles_repr	T/C
O=[N+]([O-])c1cc2c(ccc3ccccc32)o1	117 % of control
O=c1[nH]nc(OCCO)c2ccccc12	99 % of control
S=C1CC(N2CCCC2)=Nc2ccccc2N1	95 % of control
[Fe+2].[Fe+2].c1ccc2c(c1)-c1nc-2nc2[n-]c(nc3nc(nc4[n-]c(n1)c1ccccc41)-c1ccccc1-3)c1cc3c4nc5nc(nc6[n-]c(nc7nc(nc([n-]4)c3cc21)-c1ccccc1-7)c1ccccc61)-c1ccccc1-5	106 % of control
